# system: JAK3 (Homo sapiens)
# Sequence (P52333 1-1124): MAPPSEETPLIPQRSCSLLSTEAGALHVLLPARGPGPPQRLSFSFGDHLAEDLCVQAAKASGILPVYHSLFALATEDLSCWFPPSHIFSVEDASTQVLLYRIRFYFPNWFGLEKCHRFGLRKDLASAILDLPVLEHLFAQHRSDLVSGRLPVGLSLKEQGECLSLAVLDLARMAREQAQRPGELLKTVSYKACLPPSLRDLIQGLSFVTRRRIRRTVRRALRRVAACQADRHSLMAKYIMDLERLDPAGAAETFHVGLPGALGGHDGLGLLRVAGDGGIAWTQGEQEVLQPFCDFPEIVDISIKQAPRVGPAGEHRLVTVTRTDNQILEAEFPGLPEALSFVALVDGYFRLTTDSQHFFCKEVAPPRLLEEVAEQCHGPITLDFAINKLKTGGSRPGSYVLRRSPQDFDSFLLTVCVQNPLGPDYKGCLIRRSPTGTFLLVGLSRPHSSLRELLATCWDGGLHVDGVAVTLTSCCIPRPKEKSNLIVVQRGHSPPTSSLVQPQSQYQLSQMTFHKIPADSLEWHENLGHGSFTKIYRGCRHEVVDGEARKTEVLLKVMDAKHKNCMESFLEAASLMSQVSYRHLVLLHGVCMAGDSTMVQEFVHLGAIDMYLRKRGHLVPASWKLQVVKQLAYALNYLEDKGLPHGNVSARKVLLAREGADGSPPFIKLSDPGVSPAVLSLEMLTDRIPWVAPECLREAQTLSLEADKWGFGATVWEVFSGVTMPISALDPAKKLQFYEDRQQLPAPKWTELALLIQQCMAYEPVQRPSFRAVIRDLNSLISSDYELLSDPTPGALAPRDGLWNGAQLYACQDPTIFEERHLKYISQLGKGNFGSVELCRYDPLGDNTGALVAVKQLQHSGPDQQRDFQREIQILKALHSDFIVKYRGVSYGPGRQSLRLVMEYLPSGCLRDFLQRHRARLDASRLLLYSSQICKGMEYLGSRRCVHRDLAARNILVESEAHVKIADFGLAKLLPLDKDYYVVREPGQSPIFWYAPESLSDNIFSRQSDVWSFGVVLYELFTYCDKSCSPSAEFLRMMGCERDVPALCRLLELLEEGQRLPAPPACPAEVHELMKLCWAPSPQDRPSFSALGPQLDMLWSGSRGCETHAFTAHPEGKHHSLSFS
# measurement-description: Inhibition of a panel of kinases, in vitro HotSpot kinase assay: JAK3
# Type: biochemical
# test-settings: D-compounds panel data; 1 μM ATP; read-out: IC50 JAK3
I'd be grateful if you could share measured IC50 for these entries.

GET /value?item= C[C@@H]1[C@H](NC(=O)c2ccc(C3CC3)cc2)CCCN1c1cnc(C(N)=O)c(Nc2ccc(N3CCN(C)CC3)cc2)n1 [Example D-81] &field=IC50 returns 1000 to 10000 nM

The compound identified as C[C@@H]1[C@H](NC(=O)c2cnc(C3CC3)cn2)CCCN1c1cnc(C(N)=O)c(Nc2cnn(C)c2)n1 [Example D-205] registered its IC50 at 1000 to 10000 nM

The recorded IC50 for CC(C)n1cc(Nc2nc(N3CCC[C@@H](NC(=O)c4ccc(C5CC5)cc4F)[C@H]3C)cnc2C(N)=O)cn1 [Example D-123] is > 10000 nM

Reported IC50 for CN1CCN(C(=O)c2ccc(Nc3nc(N4CCC[C@@H](n5ccc6cc(C7CC7)ccc6c5=O)C4)cnc3C(N)=O)cc2)CC1 [Example D-169] was 100 to 1000 nM

Data point: CN(C)C(=O)N1CC[C@@H]2[C@H]1CCCN2c1cnc(C(N)=O)c(Nc2cnn(C)c2)n1 (racemic) [Example D-50] ; IC50 = 1000 to 10000 nM

So for CN1CCN([C@@H]2CCCN(c3cnc(C(N)=O)c(Nc4cnn(C)c4)n3)C2)C1=O [Example D-209] , the logged IC50 turned out to be 1000 to 10000 nM

The compound identified as C[C@@H]1[C@H](NC(=O)c2ccc(C(C)(C)CO)cc2)CCCN1c1cnc(C(N)=O)c(Nc2cnn(C)c2)n1 [Example D-94] registered its IC50 at 100 to 1000 nM

* * *

Please go through the items and note down their pIC50.
# system: TEC (Homo sapiens)
# Sequence (P42680 whole entry): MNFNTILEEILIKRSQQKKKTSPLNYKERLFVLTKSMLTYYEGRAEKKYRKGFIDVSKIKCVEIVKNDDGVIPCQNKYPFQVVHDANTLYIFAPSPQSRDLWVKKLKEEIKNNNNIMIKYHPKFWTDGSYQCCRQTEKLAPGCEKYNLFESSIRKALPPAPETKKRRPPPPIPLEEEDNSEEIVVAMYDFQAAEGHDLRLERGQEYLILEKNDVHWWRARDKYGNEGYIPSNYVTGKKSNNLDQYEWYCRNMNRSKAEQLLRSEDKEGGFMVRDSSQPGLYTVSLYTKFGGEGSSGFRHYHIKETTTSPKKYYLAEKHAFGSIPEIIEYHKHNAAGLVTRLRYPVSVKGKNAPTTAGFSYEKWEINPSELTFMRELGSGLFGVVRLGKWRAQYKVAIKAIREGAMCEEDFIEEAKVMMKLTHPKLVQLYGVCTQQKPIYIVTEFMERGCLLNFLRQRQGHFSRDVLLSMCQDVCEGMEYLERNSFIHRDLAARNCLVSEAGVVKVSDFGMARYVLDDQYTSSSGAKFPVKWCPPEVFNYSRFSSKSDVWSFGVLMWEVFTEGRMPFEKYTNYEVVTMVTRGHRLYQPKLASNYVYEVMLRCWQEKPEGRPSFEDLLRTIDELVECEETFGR
# measurement-description: Inhibition of a panel of kinases, in vitro HotSpot kinase assay: TEC
# Type: biochemical
# test-settings: D-compounds panel data; 1 μM ATP
pIC50: −log10 of the molar value.

Short answer on TEC (Homo sapiens) for C[C@@H]1[C@H](NC(=O)c2ccc(C3(C(F)(F)F)CC3)cc2)CCCN1c1cnc(C(N)=O)c(Nc2cnn(C)c2)n1 [Example D-221] , pIC50: 7.00 to 8.00

The measured pIC50 that C[C@@H]1[C@H](NC(=O)c2ccc(C3CC3)cc2)CCCN1c1cnc(C(N)=O)c(Nc2cnc(N3CCN(C)CC3)nc2)n1 [Example D-318] showed for TEC (Homo sapiens) is 7.00 to 8.00

Summary: CN(C)C(=O)N1CC[C@@H]2[C@H]1CCCN2c1cnc(C(N)=O)c(Nc2cnn(C)c2)n1 (racemic) [Example D-50] , TEC (Homo sapiens), pIC50 = 6.00 to 7.00

With TEC (Homo sapiens) as the test system, C[C@@H]1[C@H](NC(=O)c2ccc(C3CC3)cc2F)CCCN1c1cnc(C(N)=O)c(Nc2ccc(N3CCOCC3)cc2)n1 [Example D-73] showed pIC50 of 7.00 to 8.00

// assay TEC (Homo sapiens), entry CC(=O)NC(C)(C)c1ccc(C(=O)N[C@@H]2CCCN(c3cnc(C(N)=O)c(Nc4cnn(C)c4)n3)[C@@H]2C)cc1 [Example D-107] , pIC50 value = ≥ 8.00

The molecule C[C@@H]1[C@H](NC(=O)c2cnc(C3CC3)nc2)CCCN1c1cnc(C(N)=O)c(Nc2cnn(C)c2)n1 [Example D-86] , tested on TEC (Homo sapiens), showed pIC50 of ≥ 8.00

// pIC50 (TEC (Homo sapiens)) for Cn1cc(Nc2nc(N3CCC[C@@H]4[C@H]3CCN4C(=O)c3ccccc3)cnc2C(N)=O)cn1 (racemic) [Example D-54] = 6.00 to 7.00

Value (pIC50, TEC (Homo sapiens)) for record CC1(c2ccc(Nc3nc(N4CCC[C@@H](n5ccc6cc(C7CC7)ccc6c5=O)C4)cnc3C(N)=O)cc2)CCN(C2CCCC2)CC1 [Example D-177] = ≥ 8.00

Record for CN1CCN([C@@H]2CCCN(c3cnc(C(N)=O)c(Nc4cnn(C)c4)n3)C2)C1=O [Example D-209] under target or system TEC (Homo sapiens): pIC50 reported as 7.00 to 8.00

Form field, pIC50 with TEC (Homo sapiens), item C[C@@H]1[C@H](NC(=O)c2ccc(C3CC3)cc2)CCCN1c1cnc(C(N)=O)c(Nc2cnn(C3CCNCC3)c2)n1 [Example D-280] : ≥ 8.00

Item C[C@@H]1[C@H](NC(=O)c2ccc(C3CC3)cc2)CCCN1c1cnc(C(N)=O)c(Nc2ccc(N3CCN(C)CC3)cc2)n1 [Example D-81] ; assay system TEC (Homo sapiens); pIC50 reported as 7.00 to 8.00

The reported pIC50 value, TEC (Homo sapiens), for C[C@@H]1[C@H](NC(=O)N(C)C)CCCN1c1cnc(C(N)=O)c(Nc2cn[nH]c2)n1 [Example D-53] reads 7.00 to 8.00

Reading of pIC50 for C[C@@H]1[C@H](NC(=O)c2ccc(C3CC3)cc2)CCCN1c1cnc(C(N)=O)c(Nc2ccc(C3CCOCC3)cc2)n1 [Example D-317] with TEC (Homo sapiens): 7.00 to 8.00

Entry C[C@@H]1[C@H](NC(=O)c2ccc(C(C)(C)O)c(F)c2)CCCN1c1cnc(C(N)=O)c(Nc2cnn(C)c2)n1 [Example D-160] , tested on TEC (Homo sapiens), has a reported pIC50 of ≥ 8.00

Param item: C[C@@H]1[C@H](NC(=O)c2ccc(C(C)(C)O)cc2F)CCCN1c1nnc(C(N)=O)c(Nc2cnn(C)c2)n1 [Example D-308] ; param system: TEC (Homo sapiens); output pIC50: ≥ 8.00

Query C[C@@H]1[C@H](NC(=O)c2ccc(C3CC3)cc2F)CCCN1c1cnc(C(N)=O)c(Nc2cnn(C)c2)c1 [Example D-117] on TEC (Homo sapiens); pIC50 returned: 6.00 to 7.00

Record C[C@@H]1[C@H](NC(=O)c2ccc(C3CC3)cc2)CCCN1c1cnc(C(N)=O)c(Nc2cnn(CC(C)(C)O)c2)n1 [Example D-215] ; system TEC (Homo sapiens); pIC50 = 6.00 to 7.00

Observed pIC50, TEC (Homo sapiens), CN1CCN(Cc2ccc(Nc3nc(N4CCC[C@@H](n5ccc6cc(C7CC7)ccc6c5=O)C4)cnc3C(N)=O)cc2)CC1 [Example D-167] : 7.00 to 8.00

Item C[C@@H]1[C@H](NC(=O)c2ccc(C3CC3)cc2)CCCN1c1cnc(C(N)=O)c(Nc2ccc(N3CCN(CC(F)(F)F)CC3)cc2)n1 [Example D-97] was tested on TEC (Homo sapiens); the reported pIC50 is 7.00 to 8.00

Short answer on TEC (Homo sapiens) for C[C@@H]1[C@H](NC(=O)N(C)C)CCCN1c1cnc(C(N)=O)c(Nc2ccc(OC3CCN(C4CCCC4)CC3)cc2)n1 [Example D-102] , pIC50: 7.00 to 8.00

TEC (Homo sapiens) assay, molecule C[C@@H]1[C@H](NC(=O)c2ccc(C3CC3)cn2)CCCN1c1cnc(C(N)=O)c(Nc2ccc(OC3CCN(C)CC3)cc2)n1 [Example D-297] , recorded pIC50 = ≥ 8.00

GET /values?item= Cc1cc(Nc2nc(N3C[C@H](NC(=O)N(C)C)CC[C@H]3C)cnc2C(N)=O)sn1 [Example D-77] &system= TEC (Homo sapiens) returns pIC50: 5.00 to 6.00

C[C@@H]1[C@H](NC(=O)c2ccc(C3CC3)cc2)CCCN1c1cnc(C(N)=O)c(Nc2cnn(C3CCN(CC(F)(F)F)CC3)c2)n1 [Example D-293] on TEC (Homo sapiens) gives pIC50 = 7.00 to 8.00

Let me check: CC(=O)N1CCC(c2ccc(Nc3nc(N4CCC[C@@H](NC(=O)c5ccc(C6CC6)cc5)[C@H]4C)cnc3C(N)=O)cc2)CC1 [Example D-296] , system TEC (Homo sapiens), measured pIC50 is 7.00 to 8.00

Field pIC50 (TEC (Homo sapiens)), entry C[C@@H]1[C@H](NC(=O)c2ccc(C3CC3)cc2F)CCCN1c1cnc(C(N)=O)c(Nc2ccc(CN3CCN(C)CC3)cc2)n1 [Example D-113] : 7.00 to 8.00

TEC (Homo sapiens) assay, molecule C[C@@H]1[C@H](NC(=O)c2ccc3nccn3c2)CCCN1c1cnc(C(N)=O)c(Nc2cnn(C)c2)n1 [Example D-266] , recorded pIC50 = ≥ 8.00
